Study Target: AKT1 E17K (Homo sapiens, UniProt P31749, E17K)
Construct: expressed in transfected cells; host or cells: HEK293
Sequence (P31749 whole entry E17K): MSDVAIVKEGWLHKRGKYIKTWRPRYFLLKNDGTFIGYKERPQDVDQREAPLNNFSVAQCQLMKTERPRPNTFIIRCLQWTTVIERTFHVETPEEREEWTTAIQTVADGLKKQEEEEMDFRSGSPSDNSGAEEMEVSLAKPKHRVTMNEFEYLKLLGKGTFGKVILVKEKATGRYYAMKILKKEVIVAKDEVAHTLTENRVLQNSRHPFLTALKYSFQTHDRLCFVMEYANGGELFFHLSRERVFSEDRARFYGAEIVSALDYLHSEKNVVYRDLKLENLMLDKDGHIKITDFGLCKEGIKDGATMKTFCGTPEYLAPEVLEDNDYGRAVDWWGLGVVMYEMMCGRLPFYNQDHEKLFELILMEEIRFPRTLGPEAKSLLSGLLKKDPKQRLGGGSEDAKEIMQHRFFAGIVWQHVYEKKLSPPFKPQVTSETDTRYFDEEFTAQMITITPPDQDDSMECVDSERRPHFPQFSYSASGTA
Assay Text: Live cell AKT1 E17K target engagement by NanoBRET competitive probe displacement in HEK293 cells
Type: binding
Condition Set: NanoBRET live cell target engagement, HEK293 cells, 2 h at 37° C.
pIC50: −log10 of the molar value.
Param threshold (7) applies to pIC50; output Yes when value >= threshold, No when value < threshold.

Input: Quick check: does `Nc1ncccc1-c1nc2ccc(-n3cccn3)nc2n1-c1ccc2c(c1)CC[C@@H]2NC(=O)c1ccc2[nH]cnc2c1` have pIC50 greater than or equal to 7?
Output: Yes

Input: Quick check: does `Nc1ncccc1-c1nc2ccc(-n3cccn3)nc2n1-c1ccc2c(c1)CC[C@@H]2NC1CCN(C(=O)C2CC2)CC1` have pIC50 greater than or equal to 7?
Output: No

Input: Quick check: does `Nc1ncccc1-c1nc2ccc(-n3cccn3)nc2n1-c1ccc2c(c1)CC[C@@H]2NC(=O)c1ccccc1` have pIC50 greater than or equal to 7?
Output: Yes

Input: Quick check: does `Nc1ncccc1-c1nc2ccc(-n3cccn3)nc2n1-c1ccc2c(c1)CC[C@@H]2NC(=O)Cc1ccn[nH]1` have pIC50 greater than or equal to 7?
Output: No

Input: Quick check: does Nc1ncccc1-c1nc2ccc(-n3cccn3)nc2n1-c1ccc2c(c1)CC[C@@H]2NC1CCN(c2ccccn2)C1 (stereo partly shown) [Compound 387] have pIC50 greater than or equal to 7?
Output: No
